The values you see were collected from patent US9661850B2.

- Test system: Agriotes sp. (Wireworms)
- test summary: Agriotes sp. (wireworms) seed treatment test
- Type: in vivo
- experimental parameters: treated corn seeds, 1 mg/seed, 14 days incubation
Give measured % Mortality and moribund/intoxicated for each item. Keep answers brief.
Give a bare numeral; the unit % is implied.

Recorded % Mortality and moribund/intoxicated of Cc1cc(C2=NOC(c3cc(Cl)cc(Cl)c3)(C(F)(F)F)C2)ccc1C(=O)NC1CON(CC(F)(F)F)C1=O (mixture of isomers) [Compound A8] , please.
100

% Mortality and moribund/intoxicated for CCN1OC[C@@H](NC(=O)c2ccc(C3=NO[C@@](c4cc(Cl)cc(Cl)c4)(C(F)(F)F)C3)cc2C)C1=O [Compound A17] ?
80

Given Cc1cc(C2=NO[C@@](c3cc(Cl)cc(Cl)c3)(C(F)(F)F)C2)ccc1C(=O)N[C@@H]1CON(CC(F)(F)F)C1=O [Compound A16] , state its recorded % Mortality and moribund/intoxicated.
100

What does the record list as % Mortality and moribund/intoxicated for CCN1OCC(NC(=O)c2ccc(C3=NOC(c4cc(Cl)cc(Cl)c4)(C(F)(F)F)C3)cc2C)C1=O (mixture of isomers) [Compound A9] ?
25
